Sourced from patent US11040035B2

Target: AHR (Homo sapiens)
Sequence (P35869 11-848): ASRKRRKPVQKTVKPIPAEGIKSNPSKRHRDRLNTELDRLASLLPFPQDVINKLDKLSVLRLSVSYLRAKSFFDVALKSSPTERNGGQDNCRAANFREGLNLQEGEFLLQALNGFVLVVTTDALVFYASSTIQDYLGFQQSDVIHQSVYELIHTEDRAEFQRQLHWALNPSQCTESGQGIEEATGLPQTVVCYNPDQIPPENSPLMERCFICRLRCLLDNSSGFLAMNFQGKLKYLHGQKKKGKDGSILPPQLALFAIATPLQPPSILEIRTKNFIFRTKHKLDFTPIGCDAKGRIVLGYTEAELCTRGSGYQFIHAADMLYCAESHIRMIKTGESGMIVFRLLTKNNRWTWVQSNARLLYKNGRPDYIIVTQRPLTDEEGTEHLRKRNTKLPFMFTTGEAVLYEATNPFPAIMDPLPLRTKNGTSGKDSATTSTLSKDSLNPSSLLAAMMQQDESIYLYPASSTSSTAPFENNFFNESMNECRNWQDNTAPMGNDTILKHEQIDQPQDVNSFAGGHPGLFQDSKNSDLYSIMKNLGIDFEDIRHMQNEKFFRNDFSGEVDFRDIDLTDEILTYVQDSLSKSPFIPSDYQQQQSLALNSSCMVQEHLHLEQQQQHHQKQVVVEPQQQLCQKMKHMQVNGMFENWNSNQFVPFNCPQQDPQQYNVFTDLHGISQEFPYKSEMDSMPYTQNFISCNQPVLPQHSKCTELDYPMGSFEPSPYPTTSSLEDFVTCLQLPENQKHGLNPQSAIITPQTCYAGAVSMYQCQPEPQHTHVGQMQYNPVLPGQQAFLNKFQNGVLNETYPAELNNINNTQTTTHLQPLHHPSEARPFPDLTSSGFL
Experiment: In vitro assay 1: antagonism in human cell line (transactivation assay, kynurenic acid prestimulated)
Settings: Assay 1: AHR-luc Hum Antagonism IC50 [M], 150 μM kynurenic acid, 20 hours, firefly luciferase
quantity name: IC50 (M)
Give just the number in M; leave the unit off.

* O=C(NCC(O)C(F)(F)F)c1cc(-c2ccc(Cl)cc2)nn(-c2cc(F)cc(F)c2)c1=O (stereo not shown) [Example 44] | 1.99e-08
* O=C(N[C@@H](CO)Cc1cnc[nH]1)c1cc(-c2ccc(Cl)cc2)nn(-c2cccc(F)c2)c1=O | 3.15e-07
* O=C(N[C@H]1COC[C@H]1O)c1cc(-c2ccc(Cl)cc2)nn(-c2cccc(F)c2)c1=O (single isomer, unassigned) [Example 385] | 8.8e-08
* O=C(N[C@H]1COC[C@@H]1O)c1cc(-c2ccc(Cl)cc2)nn(-c2cccc(F)c2)c1=O [Example 167] | 1.63e-07

Can you look up the measured IC50 of CC(C)(O)C(NC(=O)c1cc(-c2ccc(Cl)cc2)nn(-c2cccc(F)c2)c1=O)C(F)(F)F (single isomer, unassigned) [Example 278] for me?
2.05e-07

Try this molecule too: O=C(NCC(O)C(F)(F)F)c1cc(-c2ccc(Cl)cc2)nn(-c2cccc(Cl)c2)c1=O (stereo not shown) [Example 62]
1.5e-07

Now give it for COc1ccc(-c2cc(C(=O)NC(CO)C(F)(F)F)c(=O)n(-c3cccc(F)c3)n2)cc1 (stereo not shown) [Example 100] too.
1.09e-08
